Cited source for all entries: the supplement of paper PMC6965134

Consider the following compounds; for each one, report its TIMS collisional cross section.
protocol: TIMS collisional cross section (CCS, N2) of the lipid ion; higher = larger ion cross section
experimental.setup: sample type: plasma; ionization mode: positive; one isomer drawn
# unit: Å² | format: bare number

[ask] Look up TIMS collisional cross section for this compound: CCCCCC/C=C/CCCCCCCC(=O)OC[C@@H](O)COP(=O)([O-])OCC[N+](C)(C)C [LPC 16:1_0:0] (ion (formula + adduct): [C24H48NO7P+H] 1+)
[reply] 225.77

[ask] What do you have for CC/C=C\C/C=C\C/C=C\C/C=C\C/C=C\C/C=C\CCC(=O)O[C@H](CO)COP(=O)(O)OCCN [LPE 22:6] (ion (formula + adduct): [C27H44NO7P+H] 1+) ?
[reply] 217.7

[ask] What do you have for CCCCCCCCCCCCC/C=C/C=C/C(=O)OC[C@@H](O)COP(=O)([O-])OCC[N+](C)(C)C (ion (formula + adduct): [C26H50NO7P+H] 1+) ?
[reply] 228.1

[ask] What do you have for CCCCCCCCCCCCCCCC(=O)OC[C@@H](O)COP(=O)(O)OCCN [LPE 16:0] (ion (formula + adduct): [C21H44NO7P+H] 1+) ?
[reply] 215.7

[ask] What do you have for CCCCC/C=C\C/C=C\C/C=C\C/C=C\CCCCCC(=O)O[C@H](CO/C=C\CCCCCCCCCCCCCC)COP(=O)(O)OCCN [PE P- 16:0@_22:4] (ion (formula + adduct): [C43H78NO7P+H] 1+) ?
[reply] 281.6

###

protocol: TIMS collisional cross section (CCS, N2) of the lipid ion; higher = larger ion cross section
experimental.setup: sample type: Liver; ionization mode: positive; one isomer drawn
Consider the following compounds; for each one, report its TIMS collisional cross section.
# unit: Å² | format: bare number

[ask] Look up TIMS collisional cross section for this compound: [C@]12(CC=C3C[C@@H](O)CC[C@]3(C)[C@@]1([H])CC[C@]1(C)[C@@]([H])([C@@](C)([H])CC[C@@H]3O[C@@]3(C)C)CC[C@@]21[H])[H] [24,25-epoxy-cholesterol] (ion (formula + adduct): [C27H44O2+H] 1+)
[reply] 209.6

[ask] What do you have for CCCCCCCC/C=C\CCCCCCCCCCCCCC(=O)N[C@@H](COP(=O)([O-])OCC[N+](C)(C)C)[C@H](O)/C=C/CCCCCCCCCCCCC [SM d18:1_24:1@] (ion (formula + adduct): [C47H93N2O6P+H] 1+) ?
[reply] 305.3

###

protocol: TIMS collisional cross section (CCS, N2) of the lipid ion; higher = larger ion cross section
experimental.setup: sample type: plasma; ionization mode: positive; one isomer drawn
endpoint.name: TIMS collisional cross section (Å²)
# unit: Å² | format: bare number

[ask] Look up TIMS collisional cross section for this compound: CCCCCCCCCCCCCCCCCCCCCC(=O)OC[C@@H](COC(=O)CCCCCCCCCCCCCCC)OC(=O)CCCCCCCCCCCCCCCCC [TG 16:0_18:0_22:0] (ion (formula + adduct): [C59H114O6+NH4] 1+)
[reply] 337.55

[ask] What do you have for CCCCCCCC/C=C\CCCCCCCCCC(=O)OC[C@@H](COC(=O)CCCCCCCCCCCCCCCCC)OC(=O)CCCCCCC/C=C\CCCCCCCC [TG 18:0_18:1_20:1] (ion (formula + adduct): [C59H110O6+NH4] 1+) ?
[reply] 334.1

[ask] What do you have for CCCCC/C=C\C/C=C\CCCCCCCC(=O)OC[C@@H](COC(=O)CCCCCCCCCCCCCCC)OC(=O)CCCCCCC/C=C\CCCCCC [TG 16:0_16:1_18:2] (ion (formula + adduct): [C53H96O6+NH4] 1+) ?
[reply] 313.6

[ask] What do you have for CCCCC/C=C\C/C=C\C/C=C\C/C=C\CCCC(=O)O[C@H](COC(=O)CCCCCCC/C=C\CCCCCCCC)COP(=O)([O-])OCC[N+](C)(C)C [PC 18:1_20:4] (ion (formula + adduct): [C46H82NO8P+H] 1+) ?
[reply] 294.3

[ask] What do you have for CC/C=C\C/C=C\C/C=C\C/C=C\C/C=C\CCCC(=O)O[C@H](COC(=O)CCCCCCCCCCCCCCCCC)COP(=O)([O-])OCC[N+](C)(C)C [PC 18:0@_20:5] (ion (formula + adduct): [C46H82NO8P+H] 1+) ?
[reply] 295.4

[ask] What do you have for CCCCCCCC/C=C\CCCCCCCC(=O)O[C@H](COC(=O)CCCCCCCCCCCCCCC)COP(=O)([O-])OCC[N+](C)(C)C [PC 16:0@_18:1] (ion (formula + adduct): [C42H82NO8P+H] 1+) ?
[reply] 288.2

[ask] What do you have for CCCCCCCCCCCCCCCCCC(=O)OC[C@H](CO)OC(=O)CCCCCCCCCCCCCCC [DG 18:0_16:0_0:0] (ion (formula + adduct): [C37H72O5+NH4] 1+) ?
[reply] 265.6

[ask] What do you have for CCCCCCCCCCCCCC(=O)OC[C@@H](COC(=O)CCCCCCCCCCCC)OC(=O)CCCCCCCCCCCCC [TG 13:0_14:0_14:0] (ion (formula + adduct): [C44H84O6+NH4] 1+) ?
[reply] 292.3

[ask] What do you have for CC/C=C\C/C=C\C/C=C\C/C=C\C/C=C\C/C=C\CCC(=O)OC[C@@H](COC(=O)CCCCCCC/C=C\CCCCCCCC)OC(=O)CCC/C=C\C/C=C\C/C=C\C/C=C\CCCCC [TG 18:1_20:4_22:6] (ion (formula + adduct): [C63H100O6+NH4] 1+) ?
[reply] 332.5

###

protocol: TIMS collisional cross section (CCS, N2) of the lipid ion; higher = larger ion cross section
experimental.setup: sample type: plasma; ionization mode: positive; one isomer drawn
± gives the standard deviation of the averaged measurements.
Consider the following compounds; for each one, report its TIMS collisional cross section.
The reply must contain the numeric value and, after it, the unit.

[ask] Look up TIMS collisional cross section for this compound: CCCCCCCCCCCCCCCCCCCCCC(=O)OC[C@@H](COC(=O)CCCCCCCCCCCCCCC)OC(=O)CCCCCCCCCCCCCCCCCC [TG 16:0_19:0_22:0] (ion (formula + adduct): [C60H116O6+NH4] 1+)
[reply] 340.7 Å²

[ask] What do you have for CCCC/C=C\CCCCCCCC(=O)OC[C@H](COC(=O)CCCCCCC/C=C\CCCCCC)OC(=O)CCCCCCCCCCCCCCC [TG 14:1_16:0_16:1] (ion (formula + adduct): [C49H90O6+NH4] 1+) ?
[reply] 303.9 ± 0.28 Å²

[ask] What do you have for CCCCC/C=C\C/C=C\CCCCCCCC(=O)OC[C@@H](COC(=O)CCCCCCCCCCCCCCCCC)OC(=O)CCCCCCC/C=C\CCCCCCCC [TG 18:0_18:1_18:2] (ion (formula + adduct): [C57H104O6+NH4] 1+) ?
[reply] 326.25 ± 0.49 Å²

[ask] What do you have for CCCCCCCCCCCCCCCCOC[C@@H](O)COP(=O)([O-])OCC[N+](C)(C)C [LPC O- 16:0] (ion (formula + adduct): [C24H52NO6P+H] 1+) ?
[reply] 230.6 Å²

[ask] What do you have for CCCCCC/C=C\CCCCCCCCCC(=O)O[C@H](COC(=O)CCCCCCCCCCCCCCCCC)COP(=O)([O-])OCC[N+](C)(C)C [PC 18:0_18:1] (ion (formula + adduct): [C44H86NO8P+H] 1+) ?
[reply] 295.2 Å²

[ask] What do you have for CCCCC/C=C\C/C=C\CCCCCCCCCCCC(=O)OC[C@@H](COC(=O)CCCCCCCCCCCCCCCCC)OC(=O)CCCCCCCCCCCCCCCCCCCCC [TG 18:0_22:0_22:2] (ion (formula + adduct): [C65H122O6+NH4] 1+) ?
[reply] 351 Å²

[ask] What do you have for CC(C)CC[C@@H](O)[C@](C)(O)[C@H]1CC[C@@]2(O)C3=CC(=O)[C@@H]4C[C@@H](O)[C@@H](O)C[C@]4(C)[C@H]3CC[C@]12C [ponasterone A] (ion (formula + adduct): [C27H44O6+H] 1+) ?
[reply] 219 Å²

[ask] What do you have for CCCCC/C=C\C/C=C\CCCCCCCCCCCC(=O)OC[C@@H](COC(=O)CCCCCCCCCCCCCCC)OC(=O)CCCCCCCCCCCCCCCCCCCC [TG 16:0_21:0_22:2] (ion (formula + adduct): [C62H116O6+NH4] 1+) ?
[reply] 342.3 Å²

[ask] What do you have for CCCCC/C=C\C/C=C\CCCCCCCC(=O)OC[C@@H](COC(=O)CCCCCCCCCCCCCCC)OC(=O)CCCCCCC/C=C\CCCCCCC [TG 16:0_17:1_18:2] (ion (formula + adduct): [C54H98O6+NH4] 1+) ?
[reply] 317.8 Å²
